Numbers sourced from patent US20240199546A1.

target: human SLC6A19 and TMEM27 (Homo sapiens); construct: expressed in transfected cells; experiment: 13C6,15N-isoleucine uptake in CHO cells with doxycycline-inducible expression of human SLC6A19 and TMEM27, RapidFire mass spectrometry (Example B-2); type: cell-based; details: read-out: SLC6A19_RapidFire Uptake Assay IC50
Sequence (Q695T7 whole entry): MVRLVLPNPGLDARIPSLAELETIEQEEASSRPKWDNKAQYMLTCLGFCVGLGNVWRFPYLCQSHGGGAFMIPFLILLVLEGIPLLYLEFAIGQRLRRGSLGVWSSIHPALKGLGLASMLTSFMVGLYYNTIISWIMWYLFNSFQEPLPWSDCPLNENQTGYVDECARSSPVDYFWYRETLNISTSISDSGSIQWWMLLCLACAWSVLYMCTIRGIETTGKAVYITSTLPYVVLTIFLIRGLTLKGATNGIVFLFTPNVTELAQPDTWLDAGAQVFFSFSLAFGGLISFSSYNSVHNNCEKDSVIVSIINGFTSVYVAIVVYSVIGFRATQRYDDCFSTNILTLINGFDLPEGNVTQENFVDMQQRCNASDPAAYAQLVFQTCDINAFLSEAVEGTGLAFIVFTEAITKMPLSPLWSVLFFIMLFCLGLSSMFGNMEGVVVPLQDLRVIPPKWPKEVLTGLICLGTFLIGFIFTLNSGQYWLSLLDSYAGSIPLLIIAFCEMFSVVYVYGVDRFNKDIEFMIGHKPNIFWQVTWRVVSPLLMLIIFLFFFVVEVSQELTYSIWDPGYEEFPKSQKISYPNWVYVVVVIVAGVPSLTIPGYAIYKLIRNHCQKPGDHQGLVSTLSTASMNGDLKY
Sequence (Q9HBJ8 15-222 partner): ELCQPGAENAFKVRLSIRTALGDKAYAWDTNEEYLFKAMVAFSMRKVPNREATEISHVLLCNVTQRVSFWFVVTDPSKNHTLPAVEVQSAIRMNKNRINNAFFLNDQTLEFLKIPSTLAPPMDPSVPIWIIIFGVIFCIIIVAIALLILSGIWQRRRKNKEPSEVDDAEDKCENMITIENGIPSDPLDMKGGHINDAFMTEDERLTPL
pIC50: −log10 of the molar value.
// reported pIC50 for each item listed
quantity_measured: pIC50

{"columns": ["molecule", "reported"],
 "data": [
  ["CN(C(=O)NCc1cc2cc(Cl)c(OCc3ccon3)cc2[nH]1)C1CC1", 6.62],
  ["CC1(C(=O)NCc2cc3cc(Cl)c(OCc4csc(Cl)c4)cc3[nH]2)CC1", 6.32],
  ["CC1(C(=O)NCc2cc3ccc(OCCc4ccon4)cc3[nH]2)CC1", 6.53],
  ["CC1(C(=O)NCc2cc3cc(Cl)c(OCc4cncs4)cc3[nH]2)CC1", 6.56],
  ["CC1(C(=O)NCc2cc3cc(Cl)c(OCc4cc5ccccn5n4)cc3[nH]2)CC1", 5.79],
  ["CC1CCCN1C(=O)NCc1cc2ccc(OCc3ccon3)cc2[nH]1 (stereo not drawn)", 5.88],
  ["CCC(=O)NCc1cc2cc(Cl)c(OCc3cccc(F)n3)cc2[nH]1", 7.45],
  ["O=C(NCc1cc2cc(Cl)c(NCc3cscn3)cc2[nH]1)N1CCC1", 6.40],
  ["Cc1cc(COc2cc3[nH]c(CNC(=O)C4(C)CC4)cc3cc2C)no1", 6.92],
  ["Cc1cc2cc(CNC(=O)N3CCCC3)[nH]c2cc1OCc1cscn1", 6.79],
  ["CC1(C(=O)NCc2[nH]c3cc(OCc4ccccc4)ccc3c2Cl)CC1", 6.73],
  ["CC1(C(=O)NCc2cc3cc(F)c(OCc4cnco4)cc3[nH]2)CC1", 6.24],
  ["CC(C)C(=O)NCc1cc2cc(Cl)c(OCc3cscn3)cc2[nH]1", 7.37],
  ["Cc1cc(COc2cc3[nH]c(CNC(=O)C4(C)CC4)cc3cc2Cl)on1", 7.42],
  ["CC1(C(=O)NCc2cc3cc(Cl)c(OCc4ccns4)cc3[nH]2)CC1", 6.86],
  ["CC1(C(=O)NCc2cc3cc(C(F)(F)F)c(OCc4ccon4)cc3[nH]2)CC1", 6.82],
  ["Cc1c(CNC(=O)C2(C)CC2)[nH]c2cc(OCc3ccon3)ccc12", 6.51],
  ["CCC(=O)NCc1cc2cc(Cl)c(OCc3cc(C)no3)cc2[nH]1", 7.57]
]}
